Data credit: ChEMBL document CHEMBL1131689

Target: Heat shock protein HSP90 (Homo sapiens, UniProt P07900+P08238)
Experiment: Inhibition of steady-state expression of Raf-1 in MCF-7 breast cancer cells
Assay type: functional, cell-based
Conditions: mcf7
Experimental readout: IC50 (µM)
The figure you give is taken to be in µM; do not add the unit.

Documented IC50 of `CO[C@@H]1/C=C\C=C(/C)C(=O)NC2=CC(=O)C(NC/C=C/C[C@@H]3C[C@H]4[C@@H]5CCc6cc(O)ccc6[C@H]5CC[C@]4(C)[C@H]3O)=C(C[C@H](C)C[C@@H](OC)[C@@H](O)[C@H](C)/C=C(\C)[C@H]1OC(N)=O)C2=O` : 1.5

Reported IC50 of `CO[C@@H]1/C=C\C=C(/C)C(=O)NC2=CC(=O)C(NCC#CC[C@@H]3C[C@H]4[C@@H]5CCc6cc(O)ccc6[C@H]5CC[C@]4(C)[C@H]3O)=C(C[C@H](C)C[C@@H](OC)[C@@H](O)[C@H](C)/C=C(\C)[C@H]1OC(N)=O)C2=O` : 1.5
